Entries and their measured growth inhibition follow.
- measurement-notes: NCI Yeast Anticancer Drug Screen. Data for the cln2 rad14 strain (AID 165);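 further: 0% = growth equal to vehicle treated cultures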
- measurement-conditions: S. cerevisiae cln2 rad14 strain, at 50.0 µM, stronger effect = higher value
The panel holds about 79,000 compounds, 15% with a hit somewhere; the sample as a whole holds those more often.
I only need the number, in %, no unit after it.

Use the examples below as a reference point.
- NCCN(Cc1ccccc1)C1CC1: 15.3
- Oc1ccccc1C=Nc1ccc(I)cc1.Oc1ccccc1C=Nc1ccc(I)cc1.[Co]: 9.45
- CC(c1ccc(N)cc1)n1cnc2c(Cl)ncnc21 (configuration not stated): -5.5
- NC(=O)c1ncn2c(=O)n(CCCl)nnc12: 19.5

Supply recorded growth inhibition for O=C(ON=C1c2ccccc2C(Br)C(Br)c2ccccc21)c1cc([N+](=O)[O-])cc([N+](=O)[O-])c1 (configuration not stated) here.
-0.6

State its growth inhibition: Cn1c(=O)c2c(ncn2CCN2CCNCC2)n(C)c1=O
-37.5

Name the recorded growth inhibition of the molecule listed here: CCCCC(O)C(C)(C)C (configuration not stated)
6.55

Respond only with growth inhibition recorded for O=C(O)C(=Cc1ccc([N+](=O)[O-])cc1)C(=O)O
-7.35

Input CC(=O)OCC(=O)c1ccccc1 , output reported growth inhibition.
-4.15

For the molecule O=C(Cc1ccccc1)NNC(=O)Nc1ccccc1 , give its reported growth inhibition.
-26.6

Recall and state the measured growth inhibition for CN=C(N)SCCCCCCSC(N)=NC .
26.1

Report growth inhibition for CC(C)N(C(=O)C1C2CCC(CC2)C1C(=O)N(C(C)C)C(C)C)C(C)C (configuration not stated)
-0.9

###

Overview of reported growth inhibition across a group of molecules:
- measurement-notes: NCI Yeast Anticancer Drug Screen. Data for the sgs1 mgt1 strain (AID 161);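 further: 0% = growth of cultures given vehicle only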
- measurement-conditions: S. cerevisiae sgs1 mgt1 strain, at 50.0 µM, stronger effect = higher value
About 79,000 compounds went through this panel and 15% of them were active in at least one assay; those are over-represented in the sample as a whole. Active and inactive are the calls of the source. No stated cut-off is given here; in the data, active means growth inhibition above about 70%; inactive means the rest.

Some molecules with known growth inhibition results, for comparison:
- CC1S(=O)(=O)OCCCOS1(=O)=O: -9.95% (inactive)
- C=CCNc1ccc(Cl)cc1Cl: -21.9% (inactive)
- CCCCOC(=O)NC(=O)c1cc2ccc(N(CC)CC)cc2oc1=O: 8.7% (inactive)
- CC(C)C1NC(C(=O)O)C(C)(C)S1 (configuration not stated): -1.6% (inactive)
- Cn1c(=O)c(CC(O)C(Cl)(Cl)Cl)nc2ccccc21 (configuration not stated): 3.4% (inactive)

Kindly indicate its recorded growth inhibition. Item: O=C1c2ccccc2C(=O)N1CCn1nc(-c2ccccc2)cc(-c2ccccc2)c1=O
-25.5% (inactive)

Consider the molecule COc1cc(N)c2c(c1)SC(c1ccccc1)C(=O)N2 (configuration not stated) . State its measured growth inhibition.
1% (inactive)

Give growth inhibition for the following molecule: CN(CCc1ccccn1)C(=S)N/N=C/c1ccccn1
91% (active)

Determine from records and report growth inhibition for OC(CBr)c1cc(-c2ccc(Cl)cc2)nc2c(-c3ccccc3)cccc12 (configuration not stated)
-4.05% (inactive)

Please give measured growth inhibition of the following entry: CC(C)(C(=Nc1ccc([N+](=O)[O-])cc1)N1CCOCC1)c1ccccc1
5.05% (inactive)

Entry Cc1ccc(-c2cc(C(=O)NN)c(C#N)c(=O)[nH]2)cc1 needs its growth inhibition filled in; supply it.
-0.85% (inactive)

Read off the recorded growth inhibition for C/C(=N\N=C(N)N)c1ccc(NC(=S)Nc2ccccc2)cc1
26.2% (inactive)

###

- measurement-notes: NCI Yeast Anticancer Drug Screen. Data for the mlh1 rad18 strain (AID 175)
- measurement-conditions: S. cerevisiae mlh1 rad18 strain growth inhibition; at 50.0 µM; stronger effect = higher value
Compounds without any hit were thinned out: in the full panel of roughly 79,000, 15% have a hit. The source made the active and inactive calls. No stated cut-off is given here; in the data, active means growth inhibition above about 70%; inactive means the rest.
property-measured: growth inhibition

- COc1cc(/C=C/C=C2\CCC/C(=C\C=C\c3ccc(O)c(OC)c3)C2=O)ccc1O: 14.2% (inactive)
- NC(=O)NCC(N)C(=O)O (stereo unspecified): -1.9% (inactive)
- O=c1c2ccccc2c(Cc2ccccc2)nn1C1CCCCCC1: 16.1% (inactive)
- CC(C)=CCNC(N)=O: 2.15% (inactive)

Answer with the recorded growth inhibition of C=C(C)c1ccc(F)cc1 only.
0.55% (inactive)

Retrieve growth inhibition measured for CCOC(=O)/C(Cc1cc(=O)n(C)c2ccccc12)=N\Nc1ccccc1 and print it.
-6.75% (inactive)

In one line, give reported growth inhibition of the entry CCOC(=O)C1=C(C)N(NC(N)=O)C2(N)N(NC(N)=O)C(C)=C(C(=O)OCC)C12C#N (stereo unspecified) .
-12.1% (inactive)

Identify growth inhibition associated with the molecule CCCCN(CCCC)CC(O)c1cc2ccc(Cl)cc2nc1-c1ccc(Cl)cc1 (stereo unspecified)
78.8% (active)

Name the recorded growth inhibition of the molecule listed here: CCOC(=O)/C=C1\NC(=O)N(CCCCCCN2C(=O)N/C(=C\C(=O)OCC)C2=O)C1=O
29.9% (inactive)

For O=C(Cc1ccccc1C(=O)O)c1ccccc1 , write its growth inhibition.
-13.3% (inactive)

Specify measured growth inhibition for C=C1C(=O)SC(=NCc2ccccc2)N1C .
25.8% (inactive)

Please indicate growth inhibition recorded for Cc1cc(=O)n2c(cc3cccccc32)n1
4.65% (inactive)

Give me measured growth inhibition, please, for this molecule: O=C(Nc1ccc(Cl)cc1)c1cc2cc(N=Nc3ccc(Br)cc3)ccc2oc1=O
-6.65% (inactive)

###

- measurement-notes: NCI Yeast Anticancer Drug Screen. Data for the rad50 strain (AID 155);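 further: 0% = growth of vehicle-only cultures of the same strain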
- measurement-conditions: S. cerevisiae rad50 strain growth inhibition; at 50.0 µM; stronger effect = higher value
This is part of a sample that, as a whole, favours compounds with a hit. Of some 79,000 tested, about 15% had one in any assay. Active and inactive are the calls of the source. Rule as the data show it: active = growth inhibition above about 70%; inactive = the rest.
property-measured: growth inhibition

Solved entries (count: 5):
- c1ccc2c(c1)OCCOCCOc1ccccc1OCCO2: -3.6% (inactive)
- N#Cc1c2c(c(=O)n3c1[nH]c1ccccc13)CCCC2: 16.2% (inactive)
- CC(=O)NNc1nc(C)c(C(/C=C/c2ccc([N+](=O)[O-])cc2)=N/N)s1: 22.4% (inactive)
- COc1ccccc1NC(=O)/C(=C\n1c(=S)[nH]c2ccc([N+](=O)[O-])cc21)C(C)=O: -9.7% (inactive)
- NC(=S)N/N=C/c1ccc(OC(F)(F)F)cn1: 27.1% (inactive)

In one line, give reported growth inhibition of the entry CC1=CC(=O)C(=CN2C(=O)/C(=C\c3cccnc3)NC2=S)C(=O)O1 .
-21.2% (inactive)

Supply measured growth inhibition of Nc1nc(SCC(=O)O)[nH]c(=O)c1NS(=O)(=O)c1ccccc1[N+](=O)[O-] in your reply.
21.4% (inactive)

Given the compound O=C(O)CCc1nc2c(n1-c1ccccc1)C(=O)c1ccccc1C2=O , write its reported growth inhibition.
38.2% (inactive)

Give recorded growth inhibition. O=C(c1cccs1)c1ccc2ccccc2c1C(=O)O
-6.95% (inactive)

Assign growth inhibition to the following record: CCCCCCCCCCCCCC(=O)Oc1ccc([N+](=O)[O-])cc1
-2.65% (inactive)

Read the entry COc1ccc(OC)c(-c2cc(C(=O)O)c3cc4ccccc4cc3n2)c1 and write its reported growth inhibition.
5.85% (inactive)

Could you please provide reported growth inhibition for CC/C(C)=N/C(=O)NN ? Thanks!
-20.1% (inactive)

Fill in reported growth inhibition for this entry: Cc1ccnc(NCc2ccccn2)c1
6.7% (inactive)

In one line, give reported growth inhibition of the entry Nc1[nH]n(-c2ccccc2)c(=O)c1/C=N/C(=S)NC1CCCCC1 .
-79% (inactive)

Write down growth inhibition measured for item O=c1nc2c(c(-c3ccc(Br)cc3)[nH]1)COC/C2=C\c1ccc(Br)cc1
31.1% (inactive)

Entry NS(=O)(=O)c1ccc(NC(=O)c2cccn3c(=O)c4ccccc4nc23)cc1 needs its growth inhibition filled in; supply it.
6.6% (inactive)

Answer with reported growth inhibition of CCOC(=O)C(C)(/C=N/NS(=O)(=O)c1ccc(C)cc1)c1ccccc1 (centres undefined)
5.2% (inactive)

Provide only the value of recorded growth inhibition for CCCN(C(=O)c1ccccc1)C(C#N)c1ccc(C(C#N)N(CCC)C(=O)c2ccccc2)cc1 (centres undefined)
7% (inactive)

###

Measured growth inhibition by item
- measurement-notes: NCI Yeast Anticancer Drug Screen. Data for the sgs1 mgt1 strain (AID 161);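 further: 0% = growth of cultures given vehicle only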
- measurement-conditions: S. cerevisiae sgs1 mgt1 strain, at 50.0 µM, stronger effect = higher value
About 79,000 compounds went through this panel and 15% of them were active in at least one assay; those are over-represented in the sample as a whole.
Write it as a number; the unit % goes unstated.

Kindly indicate its recorded growth inhibition. Item: C=CCCC(=O)CC(=O)OCC
-10.7

Output growth inhibition of CCOC(=O)C1=C(C)N(NC(N)=O)C2(N)N(NC(N)=O)C(C)=C(C(=O)OCC)C12C#N (stereo unspecified)
17.6

Quick one: give measured growth inhibition for CC(/C=C/c1ccccc1)=N\NC(=S)N/N=C(C)/C=C/c1ccccc1
21.5

Determine its reported growth inhibition: CCN(CC)CCNc1cc(OC)c(N)c2cccnc12
-2.7

Return value of growth inhibition for input CC(Oc1ccc2ccccc2c1I)C(=O)O (stereo unspecified) , no commentary.
37.8

Please list growth inhibition recorded for the compound NC(CCCCC(=O)O)C(=O)O (stereo unspecified)
-12.9

For the compound Cc1cccc(C)c1NC(=O)C(Cl)(Cl)Sc1ccc(Cl)cc1Cl , give its measured growth inhibition value.
5.9

Please list growth inhibition recorded for the compound N#Cc1[nH]c(=O)n(-c2ccc(Cl)cc2)c1N
-19

Tell me its growth inhibition given COC(=O)c1c(C(=O)OC)c(C(c2ccccc2)c2ccccc2)n(-c2ccccc2)c1Cl as the entry.
0.6

Report growth inhibition for CCCCCCCCCCCC1=C(O)C(=O)C(Br)=C(O)C1=O
44.9

Look up and state reported growth inhibition for CCOC(=O)C1=C(c2ccccc2)N=c2ccccc2=S1C (stereo unspecified)
18.1

Consider the compound NC(=S)N/N=C1\C(=O)NC(=O)C1c1ccccc1 (stereo unspecified) and give its recorded growth inhibition.
3.45

Check the records and state growth inhibition for Cc1cc(C)c(C(=O)CSC(=N)N)c(C)c1
7.5

Identify growth inhibition associated with the compound Nc1[nH]n(-c2ccccc2)c(=O)c1/C=N/C(=S)NC1CCCCC1
-61

Identify growth inhibition associated with the compound C(/C=C/c1csnn1)=C\c1ccccc1
-4.2

Determine its reported growth inhibition: COc1ccc(C=O)c(Br)c1O
-14.2

Identify measured growth inhibition associated with CC(CCc1ccccc1)NC1=NCCO1 (stereo unspecified)
-16.4

Complete the entry with growth inhibition for CC(=O)OCC(CO)(CO)COC(C)=O
-16.2

Return value of growth inhibition for input CS/C(=N/S(=O)(=O)c1ccccc1)NNC(=S)Nc1ccc(C(C)C)cc1 , no commentary.
27.2
